Tested on: HCV replicon cells Huh 9B
Experiment: HCV replicon assay (luciferase)
Type: cell-based
Conditions: Hepatitis C virus, reduction of replicon level by 50% vs untreated cell control, 72 h
pIC50: −log10 of the molar value.
Think of 7 as a floor: if pIC50 stands on it or above, it is 1.0; beneath it, 0.0.

>  <molecule>
CC(C)COCCOc1ccc(Cl)cc1C(=O)NC1N=C(c2c(Cl)cc(Cl)cc2Cl)c2ccccc2NC1=O (stereo not shown) [Example 6]

>  <assignedLabel>
0.0

$$$$
>  <molecule>
CS(=O)(=O)NCCCOc1ccc(Cl)cc1C(=O)NC1N=C(c2c(Cl)cc(Cl)cc2Cl)c2ccccc2NC1=O (stereo not shown) [Example 27]

>  <assignedLabel>
0.0

$$$$
>  <molecule>
COCCN(C)c1ncc(F)cc1C(=O)N[C@H]1N=C(c2c(Cl)cc(Cl)cc2Cl)c2ccccc2NC1=O [Example 67]

>  <assignedLabel>
1.0

$$$$
>  <molecule>
COCCOc1ncc(F)cc1C(=O)NC1N=C(c2c(Cl)cc(Cl)cc2Cl)c2ccccc2NC1=O (stereo not shown) [Example 30]

>  <assignedLabel>
1.0

$$$$
>  <molecule>
CCN(CCOC)c1ncc(F)cc1C(=O)NC1N=C(c2c(Cl)cc(Cl)cc2Cl)c2ccccc2NC1=O (stereo not shown) [Example 43]

>  <assignedLabel>
0.0

$$$$
>  <molecule>
CC(=O)NCCOc1ccc(Cl)cc1C(=O)NC1N=C(c2c(Cl)cc(Cl)cc2Cl)c2ccccc2NC1=O (stereo not shown) [Example 21]

>  <assignedLabel>
0.0

$$$$
>  <molecule>
CC(C)OCCOc1ncc(F)cc1C(=O)NC1N=C(c2c(Cl)cc(Cl)cc2Cl)c2ccccc2NC1=O (stereo not shown) [Example 36]

>  <assignedLabel>
0.0

$$$$
>  <molecule>
COCCOc1ccc(Cl)cc1C(=O)NC1N=C(c2c(Cl)cc(Cl)cc2CN2CCOCC2)c2ccccc2NC1=O (stereo not shown) [Example 49]

>  <assignedLabel>
0.0

$$$$
>  <molecule>
COCCOc1ncccc1C(=O)NC1N=C(c2c(Cl)cc(Cl)cc2Cl)c2ccccc2NC1=O (stereo not shown) [Example 31]

>  <assignedLabel>
0.0

$$$$
>  <molecule>
COCCN(c1ncc(F)cc1C(=O)NC1N=C(c2c(Cl)cc(Cl)cc2Cl)c2ccccc2NC1=O)C(C)C (stereo not shown) [Example 44]

>  <assignedLabel>
0.0

$$$$
>  <molecule>
CN(C)CCOCCOc1ccc(Cl)cc1C(=O)NC1N=C(c2c(Cl)cc(Cl)cc2Cl)c2ccccc2NC1=O (stereo not shown) [Example 13]

>  <assignedLabel>
0.0

$$$$
>  <molecule>
CCOCCOc1ncc(F)cc1C(=O)NC1N=C(c2c(Cl)cc(Cl)cc2OC)c2ccccc2NC1=O (stereo not shown) [Example 55]

>  <assignedLabel>
1.0

$$$$
>  <molecule>
CCNC(=O)NCCOc1ccc(Cl)cc1C(=O)NC1N=C(c2c(Cl)cc(Cl)cc2Cl)c2ccccc2NC1=O (stereo not shown) [Example 24]

>  <assignedLabel>
0.0

$$$$
>  <molecule>
COCCCOc1ccc(Cl)cc1C(=O)NC1N=C(c2c(Cl)cc(Cl)cc2Cl)c2ccccc2NC1=O (stereo not shown) [Example 1]

>  <assignedLabel>
0.0

$$$$
>  <molecule>
O=C(NC1N=C(c2c(Cl)cc(Cl)cc2Cl)c2ccccc2NC1=O)c1cc(Cl)ccc1OCC1CCCO1 (stereo not shown) [Example 9]

>  <assignedLabel>
0.0

$$$$
>  <molecule>
COCCN(C)c1ncc(F)cc1C(=O)NC1N=C(c2c(Cl)cc(Cl)cc2Cl)c2ccccc2NC1=O (stereo not shown) [Example 41]

>  <assignedLabel>
1.0

$$$$
>  <molecule>
COCCOc1ccc(Cl)cc1C(=O)N[C@@H]1N=C(c2c(Cl)cc(Cl)cc2Cl)c2ccccc2NC1=O [Example 60]

>  <assignedLabel>
0.0

$$$$
>  <molecule>
CCOc1cc(Cl)cc(Cl)c1C1=NC(NC(=O)c2cc(F)cnc2OCCOC)C(=O)Nc2ccccc21 (stereo not shown) [Example 57]

>  <assignedLabel>
1.0

$$$$
>  <molecule>
COCCOCCOc1ccc(Cl)cc1C(=O)NC1N=C(c2c(Cl)cc(Cl)cc2Cl)c2ccccc2NC1=O (stereo not shown) [Example 5]

>  <assignedLabel>
0.0

$$$$
>  <molecule>
COCCOc1ccc(F)cc1C(=O)NC1N=C(c2c(Cl)cc(Cl)cc2OC)c2ccccc2NC1=O (stereo not shown) [Example 53]

>  <assignedLabel>
1.0

$$$$
>  <molecule>
CCS(=O)(=O)NCCCOc1ccc(Cl)cc1C(=O)NC1N=C(c2c(Cl)cc(Cl)cc2Cl)c2ccccc2NC1=O (stereo not shown) [Example 28]

>  <assignedLabel>
0.0

$$$$
>  <molecule>
CCOc1cc(Cl)cc(Cl)c1C1=NC(NC(=O)c2cc(F)ccc2OCCOC)C(=O)Nc2ccccc21 (stereo not shown) [Example 56]

>  <assignedLabel>
1.0

$$$$
>  <molecule>
CO[C@@H](C)COc1ncc(F)cc1C(=O)NC1N=C(c2c(Cl)cc(Cl)cc2Cl)c2ccccc2NC1=O (stereo partly shown) [Example 35]

>  <assignedLabel>
0.0

$$$$
>  <molecule>
CCOCCN(CC)c1ncc(F)cc1C(=O)NC1N=C(c2c(Cl)cc(Cl)cc2Cl)c2ccccc2NC1=O (stereo not shown) [Example 45]

>  <assignedLabel>
0.0

$$$$
